Reported AUC(0-t) at 24 h values are given for each entry in this list.
experiment: AUC(0 to t) in BALB/c mouse at 10 mg/kg, ip measured for 24 hrs by LC-MS/MS analysis; assay type: ADME, organism-based; parameters: dose 10 mg/kg, time 24 hrs, route ip; conditions: in vivo
Measure name: AUC(0-t) at 24 h (ng·h/mL)

- Compound structure: "CS(=O)(=O)c1ccc(-c2nc(C(=O)NCc3cn(-c4cc(Cl)ccn4)nn3)cs2)cc1"
  Observed result: 9930
- Compound structure: "CS(=O)(=O)c1ccc(-c2nc(C(=O)NCc3cn(-c4cc(Br)ccn4)nn3)cs2)cc1"
  Observed result: 11900
- Compound structure: "CS(=O)(=O)c1ccc(-c2ncc(C(=O)NCc3cn(-c4cc(Cl)ccn4)nn3)s2)cc1"
  Observed result: 12000
- Compound structure: "CS(=O)(=O)c1ccc(-c2ncc(C(=O)NCc3cn(-c4cc(Br)ccn4)nn3)s2)cc1"
  Observed result: 24400

----------
experiment: Half life in BALB/c mouse at 10 mg/kg, ip measured for 24 hrs by LC-MS/MS analysis; format: ADME, organism-based; details: in vivo
Reported half-life values are given for each entry in this list.
Measure name: half-life (h)

- Compound structure: "CS(=O)(=O)c1ccc(-c2ncc(C(=O)NCc3cn(-c4cc(Cl)ccn4)nn3)s2)cc1"
  Observed result: 3.98
- Compound structure: "CS(=O)(=O)c1ccc(-c2nc(C(=O)NCc3cn(-c4cc(Br)ccn4)nn3)cs2)cc1"
  Observed result: 6.12
- Compound structure: "CS(=O)(=O)c1ccc(-c2ncc(C(=O)NCc3cn(-c4cc(Br)ccn4)nn3)s2)cc1"
  Observed result: 8.17
- Compound structure: "CS(=O)(=O)c1ccc(-c2nc(C(=O)NCc3cn(-c4cc(Cl)ccn4)nn3)cs2)cc1"
  Observed result: 3.94

----------
molecular target: P2X purinoceptor 7 (Mus musculus); experiment: Antagonist activity at mouse P2X7 receptor expressed in HEK293 cells assessed as inhibition of ATP-induced receptor pore formation at 1 uM by propidium iodide dye uptake based fluorescence analysis; format: cell-based
The source made the active and inactive calls. No cut-off for these calls is given here.
Measure name: inhibition

- Compound structure: "O=C(NCc1cn(-c2cc(Cl)ccn2)nn1)c1cc(-c2cccc3[nH]ccc23)ccc1Cl"
  Observed result: "10.2%"
- Compound structure: "CS(=O)(=O)c1ccc(-c2nc(C(=O)NCc3cn(-c4ccc(Br)cn4)nn3)cs2)cc1"
  Observed result: "inactive"
- Compound structure: "Nc1cccc(-c2ncc(C(=O)NCc3cn(-c4cc(Cl)ccn4)nn3)s2)c1"
  Observed result: "35.2%"
- Compound structure: "CS(=O)(=O)c1cccc(-c2ncc(C(=O)NCc3cn(-c4cc(Cl)ccn4)nn3)s2)c1"
  Observed result: "25.8%"
- Compound structure: "Cc1cc(F)ccc1-c1ccc(Cl)c(C(=O)NCc2cn(-c3cc(Cl)ccn3)nn2)c1"
  Observed result: "9.2%"
- Compound structure: "CS(=O)(=O)c1ccc(-c2nc(C(=O)NCc3cn(-c4cccc(Br)n4)nn3)cs2)cc1"
  Observed result: "inactive"
- Compound structure: "Nc1cccc(-c2ccc(Cl)c(C(=O)NCc3cn(-c4cc(Cl)ccn4)nn3)c2)c1"
  Observed result: "inactive"
- Compound structure: "CS(=O)(=O)c1ccc(-c2ncc(C(=O)NCc3cn(-c4ccc(Br)cn4)nn3)s2)cc1"
  Observed result: "inactive"
- Compound structure: "CS(=O)(=O)Nc1cccc(-c2ncc(C(=O)NCc3cn(-c4cc(Cl)ccn4)nn3)s2)c1"
  Observed result: "17.3%"
